Values were extracted from a melting point compilation (Tetko et al.; mined from patent text by program, amines drawn as free bases though some values may be those of a salt).

Below, each of the compounds is paired with its reported melting point value.

# query: melting point of entry "Cc1oc(-c2ccc(C(F)(F)F)cc2)nc1COc1ccc(/C=C/Cn2oc(=O)[nH]c2=O)cc1" 128 to 130 °C

# query: melting point of entry "CCCCCNc1cc(C(=O)OCCCCC)cc(S(N)(=O)=O)c1Oc1ccccc1" 138 to 139 °C

# query: melting point of entry "[N-]=[N+]=C1C(=O)c2ccccc2-c2ccccc21" 107 to 109 °C

# query: melting point of entry N#CC1CN1C(=O)NC(=O)c1ccccc1 (stereo not given) 144 to 146 °C

# query: melting point of entry "COCCn1c(C)nc2c(N)nc3ccccc3c21" 230 to 233 °C

###

Below, each of the compounds is paired with its reported melting point value.

Previously resolved entries follow.
compound | assay-endpoint | test-value
COc1ccccc1Oc1c(N)nc(N2CCOCC2)nc1OCCO | melting point | 136 to 138 °C
CC(C)(C)c1cc2c(c(C(C)(C)C)c1)O[Si](c1ccccc1)(c1ccccc1)Oc1c(cc(C(C)(C)C)cc1C(C)(C)C)S2 | melting point | 202 to 205 °C
CCOC(=O)c1ccc(OCC2(O)CCN(Cc3ccccc3)CC2)cc1 | melting point | 100 °C

# query: melting point of entry "CN1CCCC1=Nc1ncnc2c1ncn2C1=CC(=O)CC1" 200 to 205 °C

# query: melting point of entry "O=[N+]([O-])c1cnc(Sc2cncc(Cl)n2)s1" 108 to 110 °C

# query: melting point of entry "CC(C)(C)OC(=O)CN1CCC(=O)N(CC(=O)OC(C)(C)C)CCC1=O" 180 °C

###

Below, each of the compounds is paired with its reported melting point value.

Previously resolved entries follow.
compound | test-value
N#CCCCC#Cc1cc(F)c2ncc(C(=O)NCc3ccc(Cl)cc3)c(O)c2c1 | 208 to 210 °C
CCOn1c(CC)n[nH]c1=O | 93 °C

# query: melting point of entry CC(C(=O)NCC(COC(=O)C(C)(C)C)Cc1ccc(C(C)(C)C)cc1)c1ccc(NS(C)(=O)=O)c(Cl)c1 (stereo unspecified) 61 to 63 °C

# query: melting point of entry "O=C(Nc1cc(Cl)c(O)c(Cl)c1)c1cc(F)ccc1O" 227 to 229 °C

# query: melting point of entry CNC(=S)N1CC(c2ccccc2)C(c2ccc(Cl)cc2)=N1 (stereo unspecified) 181 to 183 °C

# query: melting point of entry "CC(C)(CN(Cc1ccccc1)C(=O)CCC(=O)O)SN=O" 95 to 98 °C

# query: melting point of entry "CC(=O)OCc1c(CNC(=O)c2ccc(C(=O)O)cc2)ccc2c1C(C)(C)CCC2(C)C" 95 to 100 °C

# query: melting point of entry "COC(=O)c1ccc(I)nc1" 134 to 135 °C

# query: melting point of entry "Cc1c(Cc2cccnc2)oc2ccc(C(=O)O)cc12" 219 to 221 °C

###

Below, each of the compounds is paired with its reported melting point value.

compound | melting point
CN(C)S(=O)(=O)c1cc2c(c(C(=O)Cl)c1)OCCO2 | 160 to 162 °C
COC(=O)c1ccc(-c2ccc(-c3ccc4c(c3)C(C)(C)CCC4(C)C)s2)cc1 | 126 to 129 °C
O=C1CC(c2ccccc2)Cc2nccc(Cl)c21 (stereo not given) | 71 to 72 °C

# query: melting point of entry "Cc1cc(CC#N)cc(Cc2nc3c(F)c(F)ccc3s2)c1" 84 to 86 °C

# query: melting point of entry "Cc1oc(-c2ccc(-c3ccccc3)cc2)nc1CCOc1ccc(C[C@H](OCC(F)(F)F)C(=O)O)c2ccccc12" 199 to 200 °C
